Origin of values: patent US20210121406A1

Molecular target: T1, biotinylated His-Avi hu TSLP (human, UniProt Q969D9 29-159, biotinylated (site not stated))
T1 construct: also called biotinylated TSLP; not shown: His-Avi tag
Test: HTRF competition; competitor DyLight-labelled tezepelumab
Exercise: state measured pIC50 for each of the binders provided.
Give bare numbers, as −log10 of the molar value.

Fab5 (Fab, V domains shown, Only the changed VH is printed) VH: QMQLVESGGGVVQPGRSLRLSCAASGFTFRTYGMHWVRQAPGKGLEWVAVIWYDGSNKHYADSVKARFTITRDNSKNTLNLQMNSLRAEDTAVYYCARAPQWELVHEAFDIWGQGTMVTVSS VL: SYVLTQPPSVSVAPGQTARITCGGNNLGSKSVHWYQQKPGQAPVLVVYDDSDRPSWIPERFSGSNSGNTATLTISRGEAGDEADYYCQVWDSSSDHVVFGGGTKLTVL: 9.38

Could you now consider this next binder?
Item Fab7 (Fab, V domains shown, VL as labelled 'LIGHT CHAIN VL FAB7') VH: QMQLVESGGGVVQPGRSLRLSCAASGFTFRTYGMHWVRQAPGKGLEWVAVIWYDGSNKHYADSVKGRFTITRDNSKNTLNLQMNSLRAEDTAVYYCARAPQWELVHEAFDIWGQGTMVTVSS VL: SYVLTQPPSVSVAPGQTARITCGGNQLGSKSVHWYQQKPGQAPVLVVYDDSDRPSWIPERFSGSNSGNTATLTISRGEAGDEADYYCQVWDSSSDHVVFGGGTKLTVL has what recorded pIC50?
9.62
